Biological target: DDR2 (Homo sapiens, UniProt Q16832)
Construct: purchased Life Technologies
Sequence (Q16832 22-855): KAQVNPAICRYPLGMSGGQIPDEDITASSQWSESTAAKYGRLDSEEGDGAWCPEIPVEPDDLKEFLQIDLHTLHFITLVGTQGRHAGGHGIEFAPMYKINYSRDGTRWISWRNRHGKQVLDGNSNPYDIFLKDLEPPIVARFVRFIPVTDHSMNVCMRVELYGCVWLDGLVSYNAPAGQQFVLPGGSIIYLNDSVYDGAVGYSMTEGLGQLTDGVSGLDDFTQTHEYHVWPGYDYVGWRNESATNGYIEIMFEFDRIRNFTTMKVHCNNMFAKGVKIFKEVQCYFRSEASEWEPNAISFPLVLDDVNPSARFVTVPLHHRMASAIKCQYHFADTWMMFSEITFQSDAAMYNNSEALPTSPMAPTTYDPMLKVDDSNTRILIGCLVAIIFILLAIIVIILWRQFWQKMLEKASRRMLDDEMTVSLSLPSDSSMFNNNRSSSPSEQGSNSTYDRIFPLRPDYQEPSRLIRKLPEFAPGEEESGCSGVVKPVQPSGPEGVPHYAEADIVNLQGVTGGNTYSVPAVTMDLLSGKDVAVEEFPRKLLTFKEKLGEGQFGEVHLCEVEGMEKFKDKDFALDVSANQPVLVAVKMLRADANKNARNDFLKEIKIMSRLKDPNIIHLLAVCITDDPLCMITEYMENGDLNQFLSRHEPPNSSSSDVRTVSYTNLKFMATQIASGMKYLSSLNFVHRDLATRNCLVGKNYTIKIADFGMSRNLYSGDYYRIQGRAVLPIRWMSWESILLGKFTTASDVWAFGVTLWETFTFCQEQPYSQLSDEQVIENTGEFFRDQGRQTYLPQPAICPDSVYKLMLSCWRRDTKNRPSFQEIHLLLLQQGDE
Test: LanthaScreen Europium Kinase Binding assay, DDR2
Conditions: 5 nM DDR2, 10 nM Kinase Tracer 178, 1 h at rt; Ki from IC50 by Cheng-Prusoff; read-out: Ki DDR2
MEASURE NAME: Ki

{"columns": ["MOL", "ASSAY SYSTEM", "MEASURE NAME", "ENDPOINT RESULT"],
 "data": [
  ["Cn1ccn2ncc(C(=O)N3CC4(CC(NC(=O)Nc5cc(C(F)F)ccn5)C4)C3)c12", "DDR2 (Homo sapiens, UniProt Q16832)", "Ki", "5 to 25 nM"]
]}

Enquiry: Would you kindly share the measured Ki for COc1ccc(OC(F)F)cc1NC(=O)NC1CC2(C1)CN(C(=O)c1cnn3ccn(C)c13)C2 ?
Return: 5 to 25 nM

Enquiry: Would you kindly share the measured Ki for CCN(C(=O)Nc1cccc(C(F)(F)F)c1)C1CC2(C1)CN(C(=O)c1cnn3ccn(C)c13)C2 ?
Return: 5 to 25 nM

Enquiry: Would you kindly share the measured Ki for O=C(Nc1cccc(C(F)(F)F)c1)NC1CC2(C1)CN(C(=O)c1cnn3cc(CO)ccc13)C2 ?
Return: < 5 nM

Enquiry: Would you kindly share the measured Ki for Cn1ccn2ncc(C(=O)N3CC4(CC(NC(=O)Nc5cc(C(F)(F)F)ccc5OC5COC5)C4)C3)c12 ?
Return: 5 to 25 nM

Enquiry: Would you kindly share the measured Ki for CN(C(=O)Nc1cc(OC(F)(F)F)ccn1)C1CC2(C1)CN(C(=O)c1cnn3ccn(C)c13)C2 ?
Return: 5 to 25 nM

Enquiry: Would you kindly share the measured Ki for Cn1ccn2ncc(C(=O)N3CC4(CC(NC(=O)Nc5cccc(OC(F)F)c5)C4)C3)c12 ?
Return: 5 to 25 nM

Enquiry: Would you kindly share the measured Ki for Nc1ccn2ncc(C(=O)N3CC4(CC(NC(=O)Nc5cccc(C(F)(F)F)c5)C4)C3)c2c1 ?
Return: < 5 nM

Enquiry: Would you kindly share the measured Ki for COCCn1ccn2ncc(C(=O)N3CC4(CC(N(C)C(=O)Nc5cncc(C(F)(F)F)c5)C4)C3)c12 ?
Return: 25 to 100 nM

Enquiry: Would you kindly share the measured Ki for CN(C(=O)Nc1cccc(C(F)(F)F)c1)C1CC2(C1)CN(C(=O)c1cnn3ccncc13)C2 ?
Return: 25 to 100 nM

Enquiry: Would you kindly share the measured Ki for CN(C(=O)Nc1cc(C(F)(F)F)ccn1)C1CC2(C1)CN(C(=O)c1cnn3ccn(C)c13)C2 ?
Return: 5 to 25 nM

Enquiry: Would you kindly share the measured Ki for COc1ccc(S(F)(F)(F)(F)F)cc1NC(=O)NC1CC2(C1)CN(C(=O)c1cnn3ccn(C)c13)C2 ?
Return: < 5 nM

Enquiry: Would you kindly share the measured Ki for Cc1nn(C)cc1-c1ccc2c(C(=O)N3CC4(CC(N(C)C(=O)Nc5cncc(C(F)(F)F)c5)C4)C3)cnn2c1 ?
Return: 5 to 25 nM

Enquiry: Would you kindly share the measured Ki for CCc1ncc(C(F)(F)F)cc1NC(=O)N(C)C1CC2(C1)CN(C(=O)c1cnn3ccn(C)c13)C2 ?
Return: 25 to 100 nM
